# System: Escherichia coli TOP10;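 further: peptides expressed intracellularly from a pBAD plasmid library in pooled LB shake-flask culture, induced with 0.3% L-arabinose, DNA abundance read by NGS, three biological replicates, DESeq2 with apeglm shrinkage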
# assay_details: shrunken log2 fold change of peptide-encoding DNA abundance (4.5 h post-induction vs induction); higher = less antimicrobial activity (less host growth inhibition)
# condition_label: time post-induction: 4.5 h; library: site-saturation at positions 5, 18, 19, 20
Could you please report measured shrunken log2 fold change for the items listed next?
Give bare numbers.

input_sequence: RRIRWRPPRLPRPRPRPPHPPRP
shrunken log2 fold change: 0.373
--
input_sequence: RRIRMRPPRLPRPRPRPNPSPRP
shrunken log2 fold change: 0.758
--
input_sequence: RRIRARPPRLPRPRPRPFIRPRP
shrunken log2 fold change: -0.27
--
input_sequence: RRIRWRPPRLPRPRPRPFGYPRP
shrunken log2 fold change: -0.0944
--
input_sequence: RRIRQRPPRLPRPRPRPFPCPRP
shrunken log2 fold change: 0.0349

Would you be so kind as to report shrunken log2 fold change for each listed record?
1. RRIRFRPPRLPRPRPRPPCFPRP
2. RRIRKRPPRLPRPRPRPICRPRP
3. RRIRARPPRLPRPRPRPYMQPRP
4. RRIRHRPPRLPRPRPRPPGCPRP
5. RRIRDRPPRLPRPRPRPQNDPRP

## Result
1: -0.0777; 2: 0.0069; 3: -0.53; 4: 0.184; 5: -0.215
